Tested on: GAL4RXR + VP16CfEcR
Experiment: Transactivation of reporter genes through switch 1.3 in 3T3 cells
Settings: GAL4MmRXRDEF/VP16CfEcRCDEF (switch 1.3), 1.0 μM ligand
PROPERTY_NAME: Mean Fold Induction at 1.0 μM Concentration

[[record]]
molecule = "CC(C)CC[C@@H](O)[C@](C)(O)[C@H]1CC[C@@]2(O)C3=CC(=O)[C@@H]4C[C@@H](O)[C@@H](O)C[C@]4(C)[C@H]3CC[C@]12C [Ponasterone A, reference compound]"
assay_value = "1.0 fold"

[[record]]
molecule = "Cc1cc(C)cc(C(=O)N(NC(=O)c2ccc3c(c2C)OCCO3)C(C)(C)C)c1"
assay_value = "54 fold"

[[record]]
molecule = "CC(C)CC[C@@H](O)[C@](C)(O)[C@H]1CC[C@@]2(O)C3=CC(=O)[C@]4(O)C[C@@H](O)[C@@H](O)C[C@]4(C)[C@H]3[C@H](O)C[C@]12C [Muristerone A, reference compound]"
assay_value = "1.0 fold"

[[record]]
molecule = "CCc1c(OC)cccc1C(=O)NN(C(=O)c1cc(C)cc(C)c1)C(C)(C)C"
assay_value = "71 fold"


###

compounds and their reported Mean Fold Induction at 1.0 μM Concentration
Tested on: GAL4EcR + VP16RXR
Assay: Transactivation of reporter genes through switch 1.1 in 3T3 cells
Conditions: GAL4CfEcRDEF/VP16MmRXRDEF (switch 1.1), 1.0 μM ligand, 48 hr
PROPERTY_NAME: Mean Fold Induction at 1.0 μM Concentration

[[record]]
compound = "CC(C)CC[C@@H](O)[C@](C)(O)[C@H]1CC[C@@]2(O)C3=CC(=O)[C@]4(O)C[C@@H](O)[C@@H](O)C[C@]4(C)[C@H]3[C@H](O)C[C@]12C [Muristerone A, reference compound]"
assay_value = "1.0 fold"

[[record]]
compound = "CC(C)CC[C@@H](O)[C@](C)(O)[C@H]1CC[C@@]2(O)C3=CC(=O)[C@@H]4C[C@@H](O)[C@@H](O)C[C@]4(C)[C@H]3CC[C@]12C [Ponasterone A, reference compound]"
assay_value = "1.0 fold"

[[record]]
compound = "Cc1cc(C)cc(C(=O)N(NC(=O)c2ccc3c(c2C)OCCO3)C(C)(C)C)c1"
assay_value = "601 fold"

[[record]]
compound = "CCc1c(OC)cccc1C(=O)NN(C(=O)c1cc(C)cc(C)c1)C(C)(C)C"
assay_value = "116 fold"

